Measured Activity of individual entries
target: Neuropeptide FF receptor 1 (Homo sapiens, UniProt Q9GZQ6); assay: Displacement of [125I]-1DMeNPFF from human NPFFR1 expressed in CHO cell membrane at 0.5 uM incubated for 1 hr by Topcount counting method relative to control; assay type: cell membranes; details: filed as antagonist
Sequence (Q9GZQ6 whole entry): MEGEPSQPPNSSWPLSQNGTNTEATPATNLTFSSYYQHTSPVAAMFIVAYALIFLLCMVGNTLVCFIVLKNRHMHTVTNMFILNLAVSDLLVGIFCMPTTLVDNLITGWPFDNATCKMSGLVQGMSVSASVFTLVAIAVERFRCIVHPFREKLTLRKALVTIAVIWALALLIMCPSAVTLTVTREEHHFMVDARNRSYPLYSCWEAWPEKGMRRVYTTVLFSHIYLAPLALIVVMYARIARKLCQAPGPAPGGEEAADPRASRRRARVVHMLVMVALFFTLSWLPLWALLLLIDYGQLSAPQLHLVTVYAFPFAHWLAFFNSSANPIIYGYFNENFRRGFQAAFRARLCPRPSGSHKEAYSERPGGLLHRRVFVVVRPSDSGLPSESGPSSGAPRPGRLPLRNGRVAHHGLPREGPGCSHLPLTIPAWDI
Numbered stars: 1 amine (or outer) side, 2 acyl side, 3 side chain; on linkers, the order of the positions; unused ones are H or OH. Square brackets hold non-standard residues; d marks the D form. Peptide text beside a SMILES is read from it. * marks the point of attachment. Nva(5-(4-Bn-piperidin-1-yl)) = N[C@@H](CCCN1CCC(Cc2ccccc2)CC1)C(=O)O; X1 = O=C1[C@@H](N[*:1])Cc2ccccc2CN1CCC(=O)[*:2]; Dmt = Cc1cc(O)cc(C)c1C[C@H](N)C(=O)O; Nicotinoyl = O=C(c1cccnc1)*
quantity kind: Activity (%)

compound=Cc1cc(O)cc(C)c1C[C@H](N)C(=O)N[C@H](CCCNC(=N)N)C(=O)N[C@H]1Cc2c(ccc3ccccc23)CN(CC(=O)N[C@@H](CCCN2CCC(Cc3ccccc3)CC2)C(=O)N[C@H](C(N)=O)C(C)C)C1=O measured=87
compound="Cc1cc(O)cc(C)c1C[C@H](N)C(=O)N[C@H](CCCCNC(=O)c1cccnc1)C(=O)N[C@H]1Cc2ccccc2CN(CCC(=O)N[C@@H](CCCN2CCC(Cc3ccccc3)CC2)C(=O)N[C@@H](Cc2ccccc2)C(N)=O)C1=O (H-[Dmt][dK](Nicotinoyl)[X1][Nva(5-(4-Bn-piperidin-1-yl))]F-NH2)" measured=74
